# test-target: Recombinant human CD33 protein (Homo sapiens (Human))
# Sequence (P20138 18-259): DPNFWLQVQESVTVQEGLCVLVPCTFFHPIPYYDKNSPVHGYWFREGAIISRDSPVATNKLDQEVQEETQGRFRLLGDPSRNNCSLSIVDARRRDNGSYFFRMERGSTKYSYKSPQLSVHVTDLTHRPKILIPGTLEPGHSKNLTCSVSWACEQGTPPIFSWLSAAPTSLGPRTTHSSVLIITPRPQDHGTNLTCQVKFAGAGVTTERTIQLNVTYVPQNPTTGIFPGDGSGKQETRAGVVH
# measurement-protocol: CD33 competitive binding assay for HTS drug screen (fluorescent multivalent sialic acid probe)
Please go through the items and note down their EC50.
Number only, in nM; omit the unit.

Value of EC50 reported for the compound Cc1cc(C(=O)NC[C@@H](O)[C@@H](O)[C@@H]2O[C@@](OC3CCCCC3NC(=O)CNC(=O)COC3CCCC3)(C(=O)O)C[C@H](O)[C@H]2NC(=O)Cn2cc(C3CCCCC3)nn2)cc(C)c1O (stereo partly shown) is 15200

# compound CC(=O)N[C@H]1[C@H]([C@H](O)[C@H](O)CNC(=O)c2ccc3occc3c2)O[C@@](CCN2CCOC[C@@]23CCN(C(=O)OC(C)(C)C)C3)(C(=O)O)C[C@@H]1O [A-121] ; its EC50 = 29

Sample `CC(=O)N[C@H]1[C@H]([C@H](O)[C@H](O)CNC(=O)c2cc(C)c(O)c(C)c2)O[C@@](CCN2CCOC[C@@]23CCN(c2cnccn2)C3)(C(=O)O)C[C@@H]1O` ; EC50 observed: 363

Record CC(=O)N[C@H]1[C@H]([C@H](O)[C@H](O)CNC(=O)c2cc(C)c(O)c(C)c2)O[C@@](C/C=C/c2cccc(CNC(=O)C3CCC(Nc4ncccn4)CC3)c2)(C(=O)O)C[C@@H]1O (stereo partly shown) . Reported EC50: 195

// recorded EC50 for `CC(=O)N[C@H]1[C@H]([C@H](O)[C@H](O)CNC(=O)c2cc(C)c(O)c(C)c2)O[C@@](CCN2CCOC[C@@]23CCN(C(=O)OC(C)(C)C)C3)(C(=O)NS(=O)(=O)c2ccccc2)C[C@@H]1O` : 15000

So, CC(=O)N[C@H]1[C@H]([C@H](O)[C@H](O)CNC(=O)c2cc(C)c(O)c(C)c2)O[C@@](CCN2CCOC[C@@]23CCN(C(=O)C(c2ccccc2)C2CCCCC2)C3)(C(=O)O)C[C@@H]1O (stereo partly shown) ? Its EC50 was 291

According to the records, this compound CC(=O)N[C@H]1[C@H]([C@H](O)[C@H](O)CNC(=O)c2cc(C)c(O)c(C)c2)O[C@@](C/C=C/C2(F)CCN(C(=O)OC(C)(C)C)C2)(C(=O)O)C[C@@H]1O (stereo partly shown) displays EC50 of 148

Consider `COC[C@@]1(NCC[C@]2(C(=O)O)C[C@H](O)[C@@H](NC(C)=O)[C@H]([C@H](O)[C@H](O)CNC(=O)c3cc(C)c(O)c(C)c3)O2)CCN(C(=O)OC(C)(C)C)C1` . Its measured EC50 is 49

Data point: `CC(=O)N[C@H]1[C@H]([C@H](O)[C@H](O)CNC(=O)c2cc(C)c(O)c(C)c2)O[C@@](C[C@H]2COC[C@@]3(CCN(C(=O)OC(C)(C)C)C3)N2)(C(=O)O)C[C@@H]1O` ; EC50 = 12

----------
# test-target: Recombinant human CD33 protein (Homo sapiens (Human))
# measurement-protocol: CD33 competitive binding assay for HTS drug screen (fluorescent multivalent sialic acid probe)
readout-label: EC50 (nM)
Give your result in nM as a bare value.

EC50 reading for `CC(=O)N[C@H]1[C@H]([C@H](O)[C@H](O)CNC(=O)c2cc(C)c(O)c(C)c2)O[C@@](CCN2CCOC[C@@]23CCN(C(=O)C=C(C)C)C3)(C(=O)O)C[C@@H]1O` : 115

EC50 for CC(=O)N[C@H]1[C@H]([C@H](O)[C@H](O)CNC(=O)c2cc(C)c3[nH]ncc3c2)O[C@@](CCN2CCOC[C@@]23CCN(C(=O)OC(C)(C)C)C3)(C(=O)O)C[C@@H]1O [A-111] is 16

Measured EC50, `CCc1cccc(C(=O)NC[C@@H](O)[C@@H](O)[C@@H]2O[C@@](CCN3CCOC[C@@]34CCN(C(=O)OC(C)(C)C)C4)(C(=O)O)C[C@H](O)[C@H]2NC(C)=O)c1` : 200

Form field EC50, entry `CC(=O)N[C@H]1[C@H]([C@H](O)[C@H](O)CNC(=O)c2c[nH]c(C)n2)O[C@@](CCN2CCOC[C@@]23CCN(C(=O)OC(C)(C)C)C3)(C(=O)O)C[C@@H]1O` : 610

EC50 in this record for `CC(=O)N[C@H]1[C@H]2O[C@](C(=O)O)(C/C=C/c3cccc(c3)[C@@H](NC(=O)[C@H]3CCCOC3)CCCCOc3c(C)cc(cc3C)C(=O)NC[C@@H](O)[C@H]2O)C[C@@H]1O` : 10100

EC50 reported for this molecule `CC(=O)N[C@H]1[C@H]([C@H](O)[C@H](O)CNC(=O)c2cc(C)c(O)c(C)c2)O[C@@](CCN2CCOCC23CN(C(=O)OC(C)(C)C)C3)(C(=O)O)C[C@@H]1O` : 538

Entry `CC(=O)N[C@H]1[C@H]([C@H](O)[C@H](O)CNC(=O)c2cnc(O)c(C)c2)O[C@@](CCN2CCOC[C@@]23CCN(C(=O)OC(C)(C)C)C3)(C(=O)O)C[C@@H]1O` , EC50 reported as 150

Measured EC50 of Cc1cc(C(=O)NC[C@@H](O)[C@@H](O)[C@@H]2O[C@@](C/C=C/c3cccc(CNC(=O)C4CCCOC4)c3)(C(=O)O)C[C@H](O)[C@H]2NC(=O)Cn2cc(C3CCCCC3)nn2)cc(C)c1O (some centres unmarked) [A-260] : 7940

`Cc1cc2cc(C)c1OCCCNC(=O)CCCCCCC[C@]1(C(=O)O)C[C@H](O)[C@@H](NC(=O)Cn3cc(C4CCCCC4)nn3)[C@@H](O1)[C@H](O)[C@H](O)CNC2=O` has a reported EC50 of 18000

For this molecule ( `CC(=O)N[C@H]1[C@H]([C@H](O)[C@H](O)CNC(=O)c2cc(C)c(O)c(C)c2)O[C@@](CCN2CCOC[C@@]23CCN(C(=O)N(C)C)C3)(C(=O)O)C[C@@H]1O` ), measured EC50 is 3500

Lab book: EC50 of Cc1cc(C(=O)NC[C@@H](O)[C@@H](O)[C@@H]2O[C@@](C/C=C/c3cccc(CNC(=O)C4CCCOC4)c3)(C(=O)O)C[C@H](O)[C@H]2NC(=O)Cn2cc(C3CCCCC3)nn2)cc(C)c1O (some centres unmarked) [A-268] noted as 1320

For `CC(=O)N[C@H]1[C@H]([C@H](O)[C@H](O)CNC(=O)c2cccc(C)c2)O[C@@](CCN2CCOC[C@@]23CCN(C(=O)OC(C)(C)C)C3)(C(=O)O)C[C@@H]1O` the molecule record lists EC50 as 70

So, CC(=O)N[C@H]1[C@H]([C@H](O)[C@H](O)CNC(=O)c2cc(C)c(O)c(C)c2)O[C@@](CC2OC(C)(C)O[C@H]2c2ccc(F)c(N3CCCC3=O)c2)(C(=O)O)C[C@@H]1O (some centres unmarked) ? Its EC50 was 920

Input `CC(=O)N[C@H]1[C@H]([C@H](O)[C@H](O)CNC(=O)c2cc(C)c(O)c(C)c2)O[C@@](C/C=C/c2cccc(CNC(=O)c3ccc4[nH]c(C)c(C)c4c3)c2)(C(=O)O)C[C@@H]1O` . Output EC50: 347

Quick note, EC50 for `CC(=O)N[C@H]1[C@H]([C@H](O)[C@H](O)CNC(=O)c2cc(C)c(O)c(C)c2)O[C@@](CCN2CCOC[C@@]23CCN(C(=O)C2(C)CCC2)C3)(C(=O)O)C[C@@H]1O` landed at 1020

The molecule `CC(=O)N[C@H]1[C@H]([C@H](O)[C@H](O)CNC(=O)c2cc(C)c(O)c(C)c2)O[C@@](CCN2CCOC[C@@]23CCN(C(=S)NC2CC2)C3)(C(=O)O)C[C@@H]1O` showed EC50 equal to 1380

// Cc1cc(C(=O)NC[C@@H](O)[C@@H](O)[C@@H]2O[C@@](C/C=C/c3cccc(CNC(=O)C4CCC[C@H](NS(C)(=O)=O)C4)c3)(C(=O)O)C[C@H](O)[C@H]2NC(=O)Cn2cc(C3CCCCC3)nn2)cc(C)c1O (some centres unmarked) : EC50 value = 1680

----------
# test-target: Recombinant Human Siglec-3/CD33 protein (His-CD33) (Homo sapiens (Human))
# Sequence (P20138 18-259): as above
# measurement-protocol: Differential scanning fluorimetry (DSF) thermal shift assay
# Format: binding
# stated-conditions: difference in thermal melt of CD33 protein (0.5 μM) with 50 μM compound
Please provide measured DSF (dTmD) for the entries that follow.
Include the unit after the number when you answer.

The recorded DSF (dTmD) with Recombinant Human Siglec-3/CD33 protein (His-CD33) (Homo sapiens (Human)) for Cc1cc(C(=O)NC[C@@H](O)[C@@H](O)[C@@H]2O[C@@](C/C=C/c3cccc(CNC(=O)c4ccon4)c3)(C(=O)O)C[C@H](O)[C@H]2NC(=O)Cn2cc(C3CCCCC3)nn2)cc(C)c1O [A-271] was 5.1 °C

DSF (dTmD) for Recombinant Human Siglec-3/CD33 protein (His-CD33) (Homo sapiens (Human)) with input CC(=O)N[C@H]1[C@H]([C@H](O)[C@H](O)CNC(=O)c2cc(C)c(O)c(C)c2)O[C@@](CC2OC(C)(C)O[C@H]2c2cccc(N3CCCC3=O)c2)(C(=O)O)C[C@@H]1O (stereo partly shown) [A-309] equals 5.2 °C

Bench note, Recombinant Human Siglec-3/CD33 protein (His-CD33) (Homo sapiens (Human)): CC(=O)N[C@H]1[C@H]2O[C@](C(=O)O)(C/C=C/CCC[C@@H](NC(=O)[C@@H]3CCCOC3)c3cccc(c3)COc3c(C)cc(cc3C)C(=O)NC[C@@H](O)[C@H]2O)C[C@@H]1O [A-354] , DSF (dTmD) reads 1.5 °C

Noted DSF (dTmD) for CC(=O)N[C@H]1[C@H]([C@H](O)[C@H](O)CNC(=O)c2cc(C)c(O)c(C)c2)O[C@@](C/C=C/c2cccc(CNC(=O)c3ccc4[nH]c(C)c(C)c4c3)c2)(C(=O)O)C[C@@H]1O [A-238] , tested on Recombinant Human Siglec-3/CD33 protein (His-CD33) (Homo sapiens (Human)): 9.2 °C

The measured DSF (dTmD) that CC(=O)N[C@H]1[C@H]([C@H](O)[C@H](O)CNC(=O)c2cc(C)c(O)c(C)c2)O[C@@](C/C=C/c2ccccc2CNC(=O)OC(C)(C)C)(C(=O)O)C[C@@H]1O [A-288] showed for Recombinant Human Siglec-3/CD33 protein (His-CD33) (Homo sapiens (Human)) is 5.3 °C

Entry CC(=O)N[C@H]1[C@H]2O[C@](C(=O)O)(CCCc3cccc(c3)[C@@H](NC(=O)C3CCCOC3)CCCCc3cc(cc(Cl)c3O)C(=O)NC[C@@H](O)[C@H]2O)C[C@@H]1O (stereo partly shown) [A-351] under Recombinant Human Siglec-3/CD33 protein (His-CD33) (Homo sapiens (Human)) had DSF (dTmD) of 3.1 °C

Measured DSF (dTmD) (Recombinant Human Siglec-3/CD33 protein (His-CD33) (Homo sapiens (Human))), entry Cc1cc(C(=O)NC[C@@H](O)[C@@H](O)[C@@H]2O[C@@](C/C=C/c3ccc4c(c3)C(NC(=O)C3CCCOC3)CC4)(C(=O)O)C[C@H](O)[C@H]2NC(=O)Cn2cc(C3CCCCC3)nn2)cc(C)c1O (stereo partly shown) [A-284] : 6.8 °C

Per the reported Recombinant Human Siglec-3/CD33 protein (His-CD33) (Homo sapiens (Human)) data, CC(=O)N[C@H]1[C@H]([C@H](O)[C@H](O)CNC(=O)c2cc(C)c(O)c(C)c2)O[C@@](C/C=C/c2cccc(CNC(=O)c3cccc(NC(C)(C)C)c3)c2)(C(=O)O)C[C@@H]1O [A-251] has DSF (dTmD) of 4.3 °C

# lookup: CC(=O)N[C@H]1[C@H]([C@H](O)[C@H](O)CNC(=O)c2cc(C)c(O)c(C)c2)O[C@@](C/C=C/c2cc(CNC(=O)C3CCCOC3)ccc2C)(C(=O)O)C[C@@H]1O (stereo partly shown) [A-290] on Recombinant Human Siglec-3/CD33 protein (His-CD33) (Homo sapiens (Human)), DSF (dTmD) = 2.0 °C

Query CC(=O)N[C@H]1[C@H]([C@H](O)[C@H](O)CNC(=O)c2cc(C)c(O)c(C)c2)O[C@@](CCN2CCOC[C@@]23CCN(C(=O)OC(C)(C)C)C3)(C(=O)NC#N)C[C@@H]1O [A-366] on Recombinant Human Siglec-3/CD33 protein (His-CD33) (Homo sapiens (Human)); DSF (dTmD) returned: 2.9 °C
